# test_parameters: human gut metagenome, 24 h, 2 µM; further: call rule not given here

>  <compound>
CCCN(CCC)CCc1cccc2c1CC(=O)N2

>  <Bacterial Biotransformation>
Compound NOT metabolized

$$$$
>  <compound>
O=C(O)CCC(=O)O.O=C(O[C@H]1CN2CCC1CC2)N1CCc2ccccc2[C@@H]1c1ccccc1 [SOLIFENACIN SUCCINATE]

>  <Bacterial Biotransformation>
Compound metabolized

$$$$
>  <compound>
CN[C@H]1CC[C@@H](c2ccc(Cl)c(Cl)c2)c2ccccc21

>  <Bacterial Biotransformation>
Compound metabolized

$$$$
>  <compound>
CC[C@H](C)C(=O)O[C@H]1CCC=C2C=C[C@H](C)[C@H](CC[C@@H]3C[C@@H](O)CC(=O)O3)[C@H]21

>  <Bacterial Biotransformation>
Compound metabolized

$$$$
>  <compound>
Cc1ccccc1C(OCCN(C)C)c1ccccc1.O=C(O)CC(O)(CC(=O)O)C(=O)O (stereo not drawn) [ORPHENADRINE CITRATE]

>  <Bacterial Biotransformation>
Compound metabolized

$$$$
>  <compound>
CC(C)(C)NC[C@H](O)COc1nsnc1N1CCOCC1.O=C(O)/C=C\C(=O)O [TIMOLOL MALEATE]

>  <Bacterial Biotransformation>
Compound NOT metabolized

$$$$
>  <compound>
CCN(CC)C(=O)C1(c2ccccc2)CC1CN (stereo not drawn)

>  <Bacterial Biotransformation>
Compound NOT metabolized

$$$$
>  <compound>
CN(CCOc1ccc(CC2SC(=O)NC2=O)cc1)c1ccccn1.O=C(O)/C=C\C(=O)O (stereo not drawn) [ROSIGLITAZONE MALEATE]

>  <Bacterial Biotransformation>
Compound NOT metabolized

$$$$

* * *

# test_parameters: human gut metagenome, 24 h, 2 µM

>  <compound>
CC#CCn1c(N2CCC[C@@H](N)C2)nc2c1c(=O)n(Cc1nc(C)c3ccccc3n1)c(=O)n2C

>  <Bacterial Biotransformation>
Compound NOT metabolized

$$$$
>  <compound>
CCN1CCCC1CNC(=O)c1cc(S(=O)(=O)CC)c(N)cc1OC (centres undefined) [AMISULPRIDE]

>  <Bacterial Biotransformation>
Compound NOT metabolized

$$$$
>  <compound>
CCN(CC)CCOC(=O)C1(C2CCCCC2)CCCCC1

>  <Bacterial Biotransformation>
Compound metabolized

$$$$
>  <compound>
CC(=O)Nc1ccc(OC(C)=O)cc1 [DIACETAMATE]

>  <Bacterial Biotransformation>
Compound metabolized

$$$$
>  <compound>
COc1ccc(CN2CCNCC2)c(OC)c1OC.Cl.Cl [TRIMETAZIDINE DIHYDROCHLORIDE]

>  <Bacterial Biotransformation>
Compound NOT metabolized

$$$$
>  <compound>
CNNCc1ccc(C(=O)NC(C)C)cc1

>  <Bacterial Biotransformation>
Compound NOT metabolized

$$$$
>  <compound>
CC(C)(C)NC(=O)[C@H]1CC[C@H]2[C@@H]3CC[C@H]4NC(=O)C=C[C@]4(C)[C@H]3CC[C@]12C [FINASTERIDE]

>  <Bacterial Biotransformation>
Compound metabolized

$$$$
>  <compound>
COc1cc(C(=O)NCc2ccc(OCCN(C)C)cc2)cc(OC)c1OC [TRIMETHOBENZAMIDE]

>  <Bacterial Biotransformation>
Compound NOT metabolized

$$$$
>  <compound>
COc1cc2nc(N3CCN(C(=O)C4CCCO4)CC3)nc(N)c2cc1OC (centres undefined)

>  <Bacterial Biotransformation>
Compound metabolized

$$$$
>  <compound>
CCOC(=O)[C@H](CCc1ccccc1)N[C@@H](C)C(=O)N1CCC[C@H]1C(=O)O.O=C(O)/C=C\C(=O)O [ENALAPRIL MALEATE]

>  <Bacterial Biotransformation>
Compound NOT metabolized

$$$$
>  <compound>
CCCCCNC(=N)N/N=C/c1c[nH]c2ccc(OC)cc12.O=C(O)/C=C\C(=O)O [TEGASEROD MALEATE]

>  <Bacterial Biotransformation>
Compound NOT metabolized

$$$$
>  <compound>
CN(C)CCc1c[nH]c2ccc(CS(=O)(=O)N3CCCC3)cc12

>  <Bacterial Biotransformation>
Compound NOT metabolized

$$$$
>  <compound>
COc1ccccc1OCCNCC(O)COc1cccc2[nH]c3ccccc3c12 (centres undefined)

>  <Bacterial Biotransformation>
Compound metabolized

$$$$
>  <compound>
CC[C@@]1(O)C(=O)OCc2c1cc1n(c2=O)Cc2cc3c(CN(C)C)c(O)ccc3nc2-1

>  <Bacterial Biotransformation>
Compound NOT metabolized

$$$$
>  <compound>
CC12CC3CC(C)(C1)CC(N)(C3)C2 [MEMANTINE]

>  <Bacterial Biotransformation>
Compound NOT metabolized

$$$$
>  <compound>
CCc1cccc2c3c([nH]c12)C(CC)(CC(=O)O)OCC3 (centres undefined)

>  <Bacterial Biotransformation>
Compound metabolized

$$$$
>  <compound>
CN1CCN2c3ccccc3Cc3ccccc3C2C1 (centres undefined)

>  <Bacterial Biotransformation>
Compound metabolized

$$$$
>  <compound>
CCN(C(C)=O)c1cccc(-c2ccnc3c(C#N)cnn23)c1

>  <Bacterial Biotransformation>
Compound metabolized

$$$$
>  <compound>
CC(CCc1ccccc1)NCC(O)c1ccc(O)c(C(N)=O)c1 (centres undefined)

>  <Bacterial Biotransformation>
Compound NOT metabolized

$$$$
>  <compound>
COc1ccc(C(CN(C)C)C2(O)CCCCC2)cc1 (centres undefined)

>  <Bacterial Biotransformation>
Compound NOT metabolized

$$$$
>  <compound>
CC1Cc2ccccc2N1NC(=O)c1ccc(Cl)c(S(N)(=O)=O)c1 (centres undefined) [INDAPAMIDE]

>  <Bacterial Biotransformation>
Compound NOT metabolized

$$$$
>  <compound>
c1ccc2[nH]c(-c3cscn3)nc2c1

>  <Bacterial Biotransformation>
Compound NOT metabolized

$$$$
>  <compound>
Clc1cccc(Cl)c1N=C1NCCN1

>  <Bacterial Biotransformation>
Compound NOT metabolized

$$$$
>  <compound>
CN(C)CCOC(C)(c1ccccc1)c1ccccn1.O=C(O)CCC(=O)O (centres undefined) [DOXYLAMINE SUCCINATE]

>  <Bacterial Biotransformation>
Compound NOT metabolized

$$$$
>  <compound>
CCOc1ccccc1OCCN[C@H](C)Cc1ccc(OC)c(S(N)(=O)=O)c1.Cl [TAMSULOSIN HYDROCHLORIDE]

>  <Bacterial Biotransformation>
Compound NOT metabolized

$$$$
>  <compound>
C#C[C@]1(OC(C)=O)CC[C@H]2[C@@H]3CCC4=CC(=O)CC[C@@H]4[C@H]3CC[C@@]21C [NORETHINDRONE ACETATE]

>  <Bacterial Biotransformation>
Compound metabolized

$$$$
>  <compound>
CC1=C(CC(=O)O)c2cc(F)ccc2/C1=C\c1ccc([S+](C)[O-])cc1 (centres undefined)

>  <Bacterial Biotransformation>
Compound metabolized

$$$$
>  <compound>
O=C([O-])C[C@H](O)C[C@H](O)/C=C/c1c(C2CC2)nc2ccccc2c1-c1ccc(F)cc1.O=C([O-])C[C@H](O)C[C@H](O)/C=C/c1c(C2CC2)nc2ccccc2c1-c1ccc(F)cc1.[Ca+2]

>  <Bacterial Biotransformation>
Compound NOT metabolized

$$$$
>  <compound>
CC(C)c1c(CN(C)C(C)Cc2ccccc2)n(C)n(-c2ccccc2)c1=O (centres undefined)

>  <Bacterial Biotransformation>
Compound metabolized

$$$$
>  <compound>
CCCCC(=O)O[C@]1(C(=O)CO)[C@@H](C)C[C@H]2[C@@H]3CCC4=CC(=O)C=C[C@]4(C)[C@@]3(F)[C@@H](O)C[C@@]21C [BETAMETHASONE VALERATE]

>  <Bacterial Biotransformation>
Compound metabolized

$$$$
>  <compound>
CCCC(C)(COC(N)=O)COC(=O)NC(C)C (centres undefined)

>  <Bacterial Biotransformation>
Compound metabolized

$$$$
>  <compound>
CC(=O)OCC(CCn1cnc2cnc(N)nc21)COC(C)=O

>  <Bacterial Biotransformation>
Compound metabolized

$$$$
>  <compound>
CCCN1C[C@H](CSC)C[C@@H]2c3cccc4[nH]cc(c34)C[C@H]21.CS(=O)(=O)O [PERGOLIDE MESYLATE]

>  <Bacterial Biotransformation>
Compound NOT metabolized

$$$$
>  <compound>
CCc1oc2ccccc2c1C(=O)c1cc(Br)c(O)c(Br)c1

>  <Bacterial Biotransformation>
Compound metabolized

$$$$
